test system: HEK-293T; assay: Multiplex assay against HEK293T; assay type: toxicity, cell-based; details: human, 12 h, 1 µM, compound concentration 1 uM, replicate 1
observable: Population Fragmented Nuclei (%)
Could you give me the number in %? Just the number is fine.

Endpoint output: Population Fragmented Nuclei (%) of COc1cccc2cc(-c3nc([C@H]4CC[C@H](C(=O)O)CC4)n4ncnc(N)c34)[nH]c12 [OSI-027] . Value?
14

For the molecule CNc1cc(Oc2cc(C(=O)Nc3cc(N4CCN(C)CC4)cc(C(F)(F)F)c3)ccc2C)ncn1 , what Population Fragmented Nuclei (%) is on record?
14

Which measured Population Fragmented Nuclei (%) value corresponds to CN1C2CCC1CC(OC(c1ccc(F)cc1)c1ccc(F)cc1)C2.Cl (configuration not stated) ?
12

Name the reported Population Fragmented Nuclei (%) value associated with the molecule COc1ccc(S(=O)(=O)N(CCO)c2ccccc2CN(C)C/C=C/c2ccc(Cl)cc2)cc1.O=P(O)(O)O
11

Recorded Population Fragmented Nuclei (%) of O=C1NC(=O)C(c2cnc3ccccn23)=C1c1cn2c3c(cc(F)cc13)CN(C(=O)N1CCCCC1)CC2 [LY-2090314] , please.
8

Which Population Fragmented Nuclei (%) is listed for COc1cc2ncnc(Nc3ccc(F)c(Cl)c3)c2cc1NC(=O)/C=C/CN1CCCCC1 [DACOMITINIB ANHYDROUS] ?
28

Item O=C(Nc1ccc(-n2nc(-c3cccnc3)cc2C(F)(F)F)cn1)c1ccc(-c2ccccc2)c(F)c1 [BI 2049] has what recorded Population Fragmented Nuclei (%)?
22

Tell me the measured Population Fragmented Nuclei (%) of COC(=N)c1nc2ccc3ncnc(Nc4ccc(OC)cc4F)c3c2s1 , please.
16

Item Cc1ccc2nc(NCCN)c3ncc(C)n3c2c1.O=C(O)C(F)(F)F.O=C(O)C(F)(F)F has what recorded Population Fragmented Nuclei (%)?
14

So what does the record say about Population Fragmented Nuclei (%) for O=C(Cc1ccc(-c2ccc(OCCN3CCOCC3)cc2)cn1)NCc1ccccc1 [TIRBANIBULIN] ?
17

Dear colleague, I am looking for the recorded Population Fragmented Nuclei (%) of the following molecule: CCOc1cc(C(=O)N2CCC(N3CCN(C)CC3)CC2)ccc1Nc1ncc2c(n1)N(C1CCCC1)c1ccccc1C(=O)N2C
16

Requested field: Population Fragmented Nuclei (%). Item: Cn1nc(C(F)(F)F)cc1-c1cnc(N2CCc3cc(S(=O)(=O)Nc4c(F)cc(Cl)cc4F)cc(N4CCCC4=O)c32)nc1 [TP-020]
10

I would be grateful if you could share the reported Population Fragmented Nuclei (%) for CN1CCN(C(=O)C(C)(C)c2ccc(C(=O)Nc3cn4cc(-c5cc(C(C)(C)C)cc(C(C)(C)C)c5)ccc4n3)cc2)CC1 [T3-CLK-N] .
15

Tell me the measured Population Fragmented Nuclei (%) of O=C1N/C(=N/c2ccccc2F)S/C1=C\c1ccc(C(=O)O)cc1 , please.
14

What value of Population Fragmented Nuclei (%) has been recorded for this entry: CCCS(=O)(=O)Nc1ccc(F)c(C(=O)c2c[nH]c3ncc(Cl)cc23)c1F [PLX-4720]
16

Fill blank: measured Population Fragmented Nuclei (%) of the molecule O=C(Nc1cccnn1)N1CCC(=Cc2cccc(Oc3ccc(C(F)(F)F)cn3)c2)CC1 is ____.
20

Value lookup for Population Fragmented Nuclei (%); key = CCN1CCN(c2ccc(Nc3cc(N(C)C(=O)Nc4c(Cl)c(OC)cc(OC)c4Cl)ncn3)cc2)CC1 [INFIGRATINIB]
18
